- measured_target: human F508del-CFTR (Homo sapiens, UniProt P13569, DEL508-508)
- Sequence (P13569 with tags, fused parts or gaps DEL508-508): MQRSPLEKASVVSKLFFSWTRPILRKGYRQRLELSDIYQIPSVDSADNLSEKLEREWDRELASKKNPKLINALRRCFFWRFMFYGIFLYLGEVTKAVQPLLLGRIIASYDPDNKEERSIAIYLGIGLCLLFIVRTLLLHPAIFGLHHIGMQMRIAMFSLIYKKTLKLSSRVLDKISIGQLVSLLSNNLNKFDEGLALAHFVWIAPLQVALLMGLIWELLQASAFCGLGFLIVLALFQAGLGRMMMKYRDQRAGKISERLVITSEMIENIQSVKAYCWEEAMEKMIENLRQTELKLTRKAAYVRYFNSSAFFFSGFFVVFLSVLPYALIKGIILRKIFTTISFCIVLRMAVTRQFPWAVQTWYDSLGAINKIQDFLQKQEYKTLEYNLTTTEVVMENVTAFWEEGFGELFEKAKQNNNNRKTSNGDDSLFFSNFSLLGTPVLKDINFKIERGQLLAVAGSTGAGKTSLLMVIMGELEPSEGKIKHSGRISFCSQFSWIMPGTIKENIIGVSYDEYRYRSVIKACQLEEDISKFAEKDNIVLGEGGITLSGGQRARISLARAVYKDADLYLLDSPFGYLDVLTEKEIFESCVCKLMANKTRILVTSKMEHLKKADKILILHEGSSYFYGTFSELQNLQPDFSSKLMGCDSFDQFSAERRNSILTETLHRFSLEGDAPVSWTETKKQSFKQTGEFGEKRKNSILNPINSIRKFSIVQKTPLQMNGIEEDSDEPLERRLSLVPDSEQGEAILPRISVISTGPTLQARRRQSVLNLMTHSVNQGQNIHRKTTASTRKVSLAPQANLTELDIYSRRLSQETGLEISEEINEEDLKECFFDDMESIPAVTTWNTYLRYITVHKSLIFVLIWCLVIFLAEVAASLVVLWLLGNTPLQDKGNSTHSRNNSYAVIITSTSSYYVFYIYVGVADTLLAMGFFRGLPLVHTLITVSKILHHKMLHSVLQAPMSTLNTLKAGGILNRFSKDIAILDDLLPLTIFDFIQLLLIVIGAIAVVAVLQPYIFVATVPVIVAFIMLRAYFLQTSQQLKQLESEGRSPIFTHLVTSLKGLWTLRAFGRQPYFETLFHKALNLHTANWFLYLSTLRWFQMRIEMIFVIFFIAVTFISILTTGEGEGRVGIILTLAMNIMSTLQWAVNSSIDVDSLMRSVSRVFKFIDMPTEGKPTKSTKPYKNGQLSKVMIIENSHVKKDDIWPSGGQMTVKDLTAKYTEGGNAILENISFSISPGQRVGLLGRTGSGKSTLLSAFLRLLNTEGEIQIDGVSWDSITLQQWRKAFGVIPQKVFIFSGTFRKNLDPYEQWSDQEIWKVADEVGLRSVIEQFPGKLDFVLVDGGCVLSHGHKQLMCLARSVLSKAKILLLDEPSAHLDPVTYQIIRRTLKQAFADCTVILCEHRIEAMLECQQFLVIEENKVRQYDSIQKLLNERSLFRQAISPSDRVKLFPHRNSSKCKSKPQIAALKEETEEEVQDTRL
- method_notes: F508del-CFTR cell surface expression (corrector activity), DiscoveRx ß-galactosidase complementation chemiluminescence assay in recombinant U2OS cell line
- reported_conditions: EC50, F508del-CFTR cell surface expression, U2OS cell line, 16h compound incubation; geomean values
pEC50 values by entry
Kindly note that pEC50 refers to -log10 of the concentration in mol/L and answer with the value alone.

compound=COc1cccc2c1C(=O)N[C@H](C(=O)NCCc1ccc3c(c1)OCO3)CC(=O)N(C)[C@@H](C)C(=O)N(CCC1CCCCC1)CC(=O)N[C@H](Cc1ccccc1)CO2 value_type=pEC50 observed_value=6.35
compound=COc1ccc(CCNC(=O)[C@@H]2CC(=O)N(C)[C@@H](CC(C)C)C(=O)N3CCCC[C@@H]3C(=O)N[C@H](Cc3ccccc3)COc3ccnc(OC)c3C(=O)N2)cc1 value_type=pEC50 observed_value=6.42

Kindly consider the entry below.
Record CC(C)C[C@H]1C(=O)N2CCCC[C@@H]2C(=O)N[C@H](Cc2ccccc2)COc2ccc3ncn(C)c3c2C(=O)N[C@H](C(=O)NCCc2ccccc2)CC(=O)N1C (racemic) , field pEC50: 6.32

---

- measured_target: human F508del-CFTR (Homo sapiens, UniProt P13569, DEL508-508)
- method_notes: F508del-CFTR cell surface expression (corrector activity), DiscoveRx ß-galactosidase complementation chemiluminescence assay in recombinant U2OS cell line
- reported_conditions: U2OS, in relation to the Emax of the corrector lumacaftor (=100%); U2OS cells, 16h compound incubation; arithmetic mean
value_type: Emax (%)
Give the number; % is assumed, so skip it.

Answered cases to consult:
compound="CC(C)C[C@H]1C(=O)N(C)[C@H](Cc2nc(-c3ccc(F)cn3)no2)C(=O)N[C@H](Cc2ccccc2)COc2cnc3ccc(F)cc3c2C(=O)N[C@H](C(=O)NCCn2nc3ccccc3n2)CC(=O)N1C [Example 840]" observed_value=363
compound="COc1nc(C)cc2c1C(=O)N[C@H](C(=O)NCCc1nc(C3CC3)no1)CC(=O)N(C)[C@@H](CC(C)C)C(=O)N(C)[C@H](Cc1nc(C(F)(F)F)no1)C(=O)N[C@H](Cc1ccccc1)CO2 [Example 849]" observed_value=465
compound="CC(C)C[C@H]1C(=O)N(C)[C@@H](CC(F)F)C(=O)N[C@H](Cc2ccccc2)COc2ccc3ncc(F)cc3c2C(=O)N[C@H](C(=O)NCCc2noc(C3CC3)n2)CC(=O)N1C [Example 802]" observed_value=200

Record Cc1cc2c3c(ccc2cn1)OC[C@@H](Cc1ccccc1)NC(=O)C1(CC(F)(F)C1)N(C)C(=O)[C@H](CC(C)C)N(C)C(=O)C[C@@H](C(=O)NCCc1nc(C2CC2)no1)NC3=O [Example 952] , field Emax: 438

Record Cc1cc2c(c3cccnc13)C(=O)N[C@H](C(=O)NCCn1nnc(C3CC3)n1)CC(=O)N(C)[C@@H](CC(C)C)C(=O)N1CCCCC1C(=O)N[C@H](Cc1ccccc1)CO2 (some centres unmarked) [Example 928] , field Emax: 247

---

- measured_target: human F508del-CFTR (Homo sapiens, UniProt P13569, DEL508-508)
- method_notes: F508del-CFTR cell surface expression (corrector activity), DiscoveRx ß-galactosidase complementation chemiluminescence assay in recombinant U2OS cell line
- reported_conditions: U2OS, in relation to Emax of corrector lumacaftor (=100%); arithmetic mean values
Define the label as yes when Emax is strictly less than 300% and as no in all remaining cases.

compound=Cc1cc(CCNC(=O)[C@@H]2CC(=O)N(C)[C@@H](CC(C)C)C(=O)N(C)[C@@H](CCOCc3ccccc3)C(=O)N[C@H](Cc3ccccc3)COc3cnc4ccccc4c3C(=O)N2)on1 class_label=yes

Kindly consider the entry below.
Please determine if COc1cccc(CCNC(=O)[C@@H]2CC(=O)N(C)[C@@H](CC(C)C)C(=O)N(C)C3(CC3)C(=O)N[C@H](Cc3ccccc3)COc3cnc4c(F)cccc4c3C(=O)N2)c1 is below 300% in terms of Emax.
no

---

- measured_target: human F508del-CFTR (Homo sapiens, UniProt P13569, DEL508-508)
- method_notes: F508del-CFTR cell surface expression (corrector activity), DiscoveRx ß-galactosidase complementation chemiluminescence assay in recombinant U2OS cell line
- reported_conditions: EC50, F508del-CFTR cell surface expression, U2OS cells, 16h compound incubation; geomean values
pEC50 values by entry
Kindly note that pEC50 refers to -log10 of the concentration in mol/L and answer with the value alone.

Answered cases to consult:
compound_string=COc1nccc2c1C(=O)N[C@H](C(=O)NCCc1cccc(-n3nccn3)c1)CC(=O)N(C)[C@@H](CC(C)C)C(=O)N1CCCC[C@@H]1C(=O)N[C@H](Cc1ccccc1)CO2 value_type=pEC50 observed_value=6.26
compound_string=Cc1cc(CCNC(=O)[C@@H]2CC(=O)N(C)[C@@H](CC(C)C)C(=O)N3CCCC[C@@H]3C(=O)N[C@H](Cc3ccccc3)COc3ccc4c(c3C(=O)N2)OCC4)on1 value_type=pEC50 observed_value=6.17
compound_string=Cc1cc2ccc3c(c2o1)C(=O)N[C@H](C(=O)NCCc1nc(C2CC2)no1)CC(=O)N(C)[C@@H](CC(C)C)C(=O)N(C)CC(=O)N[C@H](Cc1ccccc1)CO3 value_type=pEC50 observed_value=6.35

// molecule [2H]C([2H])([2H])Oc1nc(C)cc2c1C(=O)N[C@H](C(=O)NCCc1cc(OC)no1)CC(=O)N(C)[C@@H](CC(C)C)C(=O)N1CCCC[C@@H]1C(=O)N[C@H](Cc1ccccc1)CO2 , assay human F508del-CFTR (Homo sapiens, UniProt P13569, DEL508-508), pEC50 value: 6.52

// molecule Cc1cc(CCNC(=O)[C@@H]2CC(=O)N(C)[C@@H](CC(C)C)C(=O)N3CCCC[C@@H]3C(=O)N[C@H](Cc3ccccc3)COc3ccc4nc(C)oc4c3C(=O)N2)on1 , assay human F508del-CFTR (Homo sapiens, UniProt P13569, DEL508-508), pEC50 value: 6.03

---

- measured_target: human F508del-CFTR (Homo sapiens, UniProt P13569, DEL508-508)
- method_notes: F508del-CFTR cell surface expression (corrector activity), DiscoveRx ß-galactosidase complementation chemiluminescence assay in recombinant U2OS cell line;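 note: U2OS cells co-expressing ProLink-tagged F508del-CFTR and a membrane-anchored enzyme acceptor, where more surface CFTR restores β-galactosidase activity measured by chemiluminescence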
- reported_conditions: U2OS, in relation to the Emax of the corrector lumacaftor (=100%); U2OS cell line, 16h compound incubation; arithmetic mean values
value_type: Emax
Reply with the number and its unit after it.

Answered cases to consult:
compound="CC(C)C[C@H]1C(=O)N(CCC2CCCCC2)CC(=O)N[C@H](Cc2ccccc2)COc2cc3ccccc3cc2C(=O)N[C@H](C(=O)NCCc2ccc3c(c2)OCO3)CC(=O)N1C [Example 250]" value_type=Emax observed_value=160%
compound="COc1cccc(CCNC(=O)[C@@H]2CC(=O)N(C)[C@@H](CC(C)C)C(=O)N3CCN(C4CC4)C[C@H]3C(=O)N[C@H](Cc3ccccc3)COc3ccc4ccccc4c3C(=O)N2)c1 [Example 357]" value_type=Emax observed_value=124%
compound="COc1cccc(CCNC(=O)[C@@H]2CC(=O)N(C)[C@@H](CC(C)C)C(=O)N3CCCC[C@@H]3C(=O)N[C@H](Cc3ccccc3)COc3cnc4ccccc4c3C(=O)N2)c1 [Example 365]" value_type=Emax observed_value=387%
compound="CN1C(=O)C[C@@H](C(=O)NCCc2ccc3c(c2)OCO3)NC(=O)c2c(ccc3ccccc23)OC[C@@H](Cc2ccccc2)NC(=O)CN(CC[C@H]2CCCCO2)C(=O)[C@@H]1CC1CC1 [Example 359]" value_type=Emax observed_value=144%
compound="COc1cc(F)c(CCNC(=O)[C@@H]2CC(=O)N(C)[C@@H](CC(C)C)C(=O)N3CCCC[C@@H]3C(=O)N[C@H](Cc3ccccc3)COc3cnc4ccccc4c3C(=O)N2)c(F)c1 [Example 74]" value_type=Emax observed_value=271%
compound="CC(C)C[C@H]1C(=O)N(C)C2(CC2)C(=O)N[C@H](Cc2ccccc2)COc2cnc3ccccc3c2C(=O)N[C@H](C(=O)NCCc2c(F)cccc2F)CC(=O)N1C [Example 110]" value_type=Emax observed_value=261%
compound="CN1C(=O)C[C@@H](C(=O)NCCc2ccc3c(c2)OCO3)NC(=O)c2c(ccc3ccccc23)OC[C@@H](Cc2ccccc2)NC(=O)CN(CCC2CCCCC2)C(=O)[C@@H]1CC1CCC1 (racemic) [Example 292]" value_type=Emax observed_value=191%
compound="Cc1cc(CCNC(=O)[C@@H]2CC(=O)N(C)[C@@H](CC(C)C)C(=O)N3CCCC[C@@H]3C(=O)N[C@H](Cc3ccccc3)COc3cnc4ccccc4c3C(=O)N2)on1 [Example 367]" value_type=Emax observed_value=321%

Record COc1cccc(CCNC(=O)[C@@H]2CC(=O)N(C)[C@@H](CC(C)C)C(=O)N(CCC3CCCCC3)CC(=O)N[C@H](Cc3ccccc3)COc3ccc4nc(C)oc4c3C(=O)N2)c1 [Example 380] , field Emax: 325%

Record CC(C)C[C@H]1C(=O)N2CCOC[C@@H]2C(=O)N[C@H](Cc2ccccc2)COc2ccc3ccccc3c2C(=O)N[C@H](C(=O)NCCc2ccc3c(c2)OCC3)CC(=O)N1C [Example 42] , field Emax: 419%
